Target: His-tagged EED (His6X-EED), full length (UniProt O75530 1-441)
Sequence (O75530 whole entry): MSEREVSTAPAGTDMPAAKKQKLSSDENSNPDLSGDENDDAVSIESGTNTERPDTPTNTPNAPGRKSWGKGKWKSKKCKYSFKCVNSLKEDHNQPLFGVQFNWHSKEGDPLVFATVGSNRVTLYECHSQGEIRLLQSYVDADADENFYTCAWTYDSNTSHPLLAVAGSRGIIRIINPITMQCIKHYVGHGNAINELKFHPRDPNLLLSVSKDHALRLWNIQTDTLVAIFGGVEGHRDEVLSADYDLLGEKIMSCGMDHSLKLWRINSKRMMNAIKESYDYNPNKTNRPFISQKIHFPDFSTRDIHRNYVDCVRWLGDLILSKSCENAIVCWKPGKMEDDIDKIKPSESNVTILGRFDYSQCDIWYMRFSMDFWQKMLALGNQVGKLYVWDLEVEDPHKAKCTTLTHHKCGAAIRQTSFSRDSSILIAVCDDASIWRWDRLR
Experiment: ITC
Where no end group is shown, it is not given here. [ ]: non-standard residue; d: D form. Lys(Me3) = C[N+](C)(C)CCCC[C@H](N)C(=O)O
recorded.metric: Kd (µM)

1. XKF (N-terminal (2S,3aS,7aS)-octahydro-1H-indole cap; methyl-isopropyl lysine (Kme,iPr); C-terminal piperidinyl ring in place of leucine) [UNC5115]
2. QR[Lys(Me3)]FA (peptide, UniProt Q92833 114-118, looked up) [Jarid2_(114–118)K116me3]
Q: Lab notebook, comparison: 1 versus 2 , higher Kd goes to which? Answer by quoting the chosen item's label.
Ans: 2
